# System: UACC-257 melanoma
# Protocol details: NCI-60 one-dose screen, 48 h (100 = growth as untreated, 0 = no growth, -100 = all killed)
# Measurement context: 10 µM unless noted
The panel holds about 83,000 compounds, 20% with a hit somewhere; the sample as a whole holds those more often.
Measured property: growth (%)
Record the value in %, omitting the unit from your answer.

Some molecules with known growth results, for comparison:
Molecule	Measured property	Recorded result
Cc1cc(C)c2c(c1)N(C)c1ncnc(-n3c(C)nc4cc(C)ccc43)c1CC2C (centres undefined)	growth	25.8
CCOC(=O)C#Cc1c(C(=O)OCC)nnn1[C@@H]1O[C@H](COC)[C@@H](OC)[C@H]1OC	growth	59.3

Exercise: Any idea what its growth is? The molecule is O=C(O)c1cn(C2CC2)c2cc(N3CCN(C(=O)N/N=C/c4cccc5ccccc45)CC3)c(F)cc2c1=O
Key: 98.8

Exercise: Any idea what its growth is? The molecule is Ic1ccc(Nc2nc3nonc3nc2Nc2ccc(I)cc2)cc1
Key: -29.7

Exercise: Any idea what its growth is? The molecule is Cc1c2ccccc2nc2cc3c(cc12)[C@H]1CC[C@]2(C)C(=O)CC[C@H]2[C@@H]1CC3
Key: 98.3

Exercise: Any idea what its growth is? The molecule is c1ccc(-c2c(-c3ccccc3)[n+](Cc3ccc4ccccc4c3)cn2Cc2ccc3ccccc3c2)cc1
Key: -84

Exercise: Any idea what its growth is? The molecule is CC(=O)O[C@H]1CC[C@]2(C)[C@H]3CC=C4[C@@H]5CC(C)(C)CC[C@]5(C(=O)N5CCN(CCC#N)CC5)CC[C@@]4(C)[C@]3(C)CC[C@H]2C1(C)C
Key: 18.1

Exercise: Any idea what its growth is? The molecule is COC(=O)Cn1c2c(c3c(OC)cccc31)C(=O)c1ccccc1-2
Key: 101

Exercise: Any idea what its growth is? The molecule is CCCCn1c(NC(C)=O)c(S(=O)(=O)c2ccccc2)c2nc3ccccc3nc21
Key: 99.6

* * *

# Test system: NCI-H322M lung
# Protocol details: NCI-60 one-dose screen, 48 h (100 = growth as untreated, 0 = no growth, -100 = all killed)
# Measurement context: 10 µM unless noted
About 83,000 compounds went through this panel and 20% of them were active in at least one assay; those are over-represented in the sample as a whole.
Measured property: growth (%)
Record the value in %, omitting the unit from your answer.

Some compounds with known growth results, for comparison:
Compound	growth [%]
CC/C(=C(/c1ccc(O)cc1)c1ccc(OCCN2CCCCC2)cc1)c1ccc(OC)cc1	90.2
O=c1oc2c(cc1-c1ccccc1)c[n+]([O-])c1ccccc21	104
Cc1ccc(C)c2c1sc1nc(N3CCOCC3)c(C#N)c(=O)n12	107

Exercise: Any idea what its growth is? The compound is COc1cc2c(c(OC)c1OC)C(=O)CC(c1cccc(C(=O)Nc3ccccc3Br)c1)O2 (centres undefined)
Key: 98.1

Exercise: Any idea what its growth is? The compound is COc1cc2c(c(OC)c1OC)C(=O)CC(c1cccc(C(=O)Nc3ccc(C#N)cc3)c1)O2 (centres undefined)
Key: 90.8

Exercise: Any idea what its growth is? The compound is COc1ccc(-c2cc(-c3cn(-c4cccc(Cl)c4)nc3-c3ccc(OC)cc3)on2)cc1
Key: 86.9

Exercise: Any idea what its growth is? The compound is COC(=O)[C@@]12CC=C(C)[C@]3(C[C@H](c4ccoc4)OC3=O)[C@H]1C=C[C@@H](O)[C@@]2(O)C(=O)OC
Key: 88.7

Exercise: Any idea what its growth is? The compound is Cc1ccc(S(=O)(=O)N2CCCN(c3nc(-c4ccccc4)nc4nc(-c5ccccc5)oc34)CC2)cc1
Key: 97.3

Exercise: Any idea what its growth is? The compound is CCOC(=O)C1=C(CCl)N(C)C(=O)NC1c1ccc2c(c1)OCO2 (centres undefined)
Key: 85

Reference for the values: PubChem BioAssay (NCI)
